Data provenance: patent US20260150817A1

Readings of IC50 for the listed binders
Molecular target: Spike protein of the COVID-19 Spike-ACE2 Binding Assay Kit (Raybiotech) (SARS-CoV-2, UniProt P0DTC2 319-541)
Measured Endpoint: IC50 (nM)

>>> value_observed("M2S521_378 Nb-Fc (Fc fusion, also called LVGN-S521378) EVQLQQSGPELVKPGASVKISCKASGYTFTDYYMKWVKQSHGKSLEWIGDINPKNGGTNYNQKFKDKATLTVDKSSSTAYMELRSLTSEDSAVYYCARLEDGYYGYAIDYWSQGTSVTVSS")
2.2
>>> value_observed("M320_5 Nb-Fc (Fc fusion, also called LVGN-S3205) EVQLQQSGPELVKPGASVKMSCKASGYTFTDYYIKWEKQSHGKSLEWIGDINPKNGETFYNQQFKGKATLTVDKSSSTAYMQLNSLTSEDSAVYYCARKEYGDYGYAVDYWGQGTSVTVSS")
0.4
>>> value_observed("M2S320_377 Nb-Fc (Fc fusion, also called LVGN-S320377) EVQLQQSGPELVKPGASVKMSCKASGYTFTDYYVKWKKQSHGKSLEWIGDINPNNGDTFYNQKFKDKATLTVDKSSSTAYMQLNSLTSEDSAVYYCARKEYGNFGYAVDYWGQGTSVTVSS")
1.6
>>> value_observed("MS521_35 Nb-Fc (Fc fusion, also called LVGN-S52135) EVQLQQSGPELVKPGASVKISCKASGYTFTDYYMKWVKQRHGQSLEWIGNINPTNGDTNYSQNFKGKATLTVDKSSTTAYMELRSLTSEDSAVYYCARLEDGYYGYAVDYWGQGTSVTVSS")
0.49
